- system_tested: UniProt Q07889
- assay_details: SOS1/KRAS WT HTRF binding assay (FRET-based protein-protein interaction assay)
- experimental_context: 40 nM GST-KRAS-WT, 40 nM His6-SOS1 exchange domain; at least two independent replicates; read-out: SOS1/KRAS WT HTRF Binding assay pIC50 (converted)
attribute_measured: IC50 (nM)

Cc1nnc(N[C@H](C)c2cccc(C(F)(F)F)c2)c2cn(C3(C)CC3)c(=O)cc12 (racemic) = 58.9
CC(=O)N1CC=C(c2cc3c(N[C@H](C)c4cccc(C(F)(F)F)c4)nnc(C)c3n(C)c2=O)CC1 (racemic) = 36.3
Cc1nnc(N[C@H](C)c2cccc(C(F)F)c2)c2cc(C3CCOCC3)c(=O)n(C)c12 (racemic) = 93.3
Cc1nnc(N[C@H](C)c2cccc(C(F)(F)F)c2)c2cn(C3CCOC3)c(=O)cc12 (mixture of isomers) = 234

[I] Cc1nnc(N[C@H](C)c2cccc(C(F)F)c2)c2cc(C3CCN(C)CC3)c(=O)n(C)c12 (racemic)
[II] CC(=O)N1CCC(c2cc3c(N[C@H](C)c4cccc(C(F)F)c4)nnc(C)c3n(C)c2=O)CC1
[III] Cc1nnc(N[C@H](C)c2cccc(C(F)F)c2)c2cc(C3=CCCC3)c(=O)n(C)c12
Exam item: Order the records so the highest IC50 appears first and the lowest last. Present the labels in the sequence the task asks for.
Marked response: III, I, II

* * *

- system_tested: SOS1 binding to KRAS-WT (Homo sapiens (Human), UniProt Q07889)
- Sequence (Q07889 564-1049): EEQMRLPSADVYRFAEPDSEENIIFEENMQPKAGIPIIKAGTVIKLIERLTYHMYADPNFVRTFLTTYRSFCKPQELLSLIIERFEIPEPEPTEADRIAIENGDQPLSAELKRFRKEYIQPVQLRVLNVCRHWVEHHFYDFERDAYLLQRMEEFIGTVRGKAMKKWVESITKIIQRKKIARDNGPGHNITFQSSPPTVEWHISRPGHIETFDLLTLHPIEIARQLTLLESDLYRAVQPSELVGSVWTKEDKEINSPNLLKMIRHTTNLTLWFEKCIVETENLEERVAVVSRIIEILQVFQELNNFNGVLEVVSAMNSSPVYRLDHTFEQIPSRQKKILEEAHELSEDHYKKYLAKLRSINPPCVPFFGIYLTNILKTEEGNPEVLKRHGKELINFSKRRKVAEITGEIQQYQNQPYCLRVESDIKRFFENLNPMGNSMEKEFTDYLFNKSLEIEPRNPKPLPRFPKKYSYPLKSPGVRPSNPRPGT
- assay_details: SOS1/KRAS WT HTRF binding assay (FRET-based protein-protein interaction assay)
- experimental_context: 40 nM GST-KRAS-WT, 40 nM His6-SOS1 exchange domain; at least two independent replicates
attribute_measured: SOS1/KRAS WT HTRF Binding assay pIC50

Cc1nnc(N[C@H](C)c2cccc(C(F)(F)F)c2)c2cc(O[C@H]3CCOC3)cnc12 [Compound 10] = 6.76
Cc1nnc(NC(C)c2cccc(C(F)(F)F)c2)c2cn(C3CCCC3)c(=O)cc12 (stereo not drawn) [Compound 1] = 6.72
CCn1cc2c(N[C@H](C)c3cccc(C(F)(F)F)c3)nnc(C)c2cc1=O [Compound 3] = 6.46
Cc1nnc(N[C@H](C)c2cccc(C(F)(F)F)c2)c2cn(CC3(C)COC3)c(=O)cc12 [Compound 6] = 6.34
Cc1nnc(N[C@H](C)c2cccc(C(F)(F)F)c2)c2cn(CC3CC3)c(=O)cc12 [Compound 4] = 6.52
Cc1nnc(NC(C)c2cccc(C(F)(F)F)c2)c2cc(O[C@H]3CCOC3)cnc12 (stereo partly drawn) [Compound 9] = 6.60
Cc1nnc(N[C@H](C)c2cccc(C(F)(F)F)c2)c2cc(C3=CCCC3)c(=O)n(C)c12 [Compound 12] = 6.96
Cc1nnc(N[C@H](C)c2cccc(C(F)(F)F)c2)c2cn(C3CCCC3)c(=O)cc12 [Compound 2] = 7.11
Cc1nnc(N[C@H](C)c2cccc(C(F)(F)F)c2)c2cc(C3=CCCNC3)c(=O)n(C)c12 [Compound 16] = 7.30
Cc1nnc(N[C@H](C)c2cccc(C(F)(F)F)c2)c2cn(C(C)C)c(=O)cc12 [Compound 7] = 7.02
Cc1nnc(N[C@H](C)c2cccc(C(F)(F)F)c2F)c2cc(C3CCNCC3)c(=O)n(C)c12 [Compound 23] = 7.24
Cc1nnc(N[C@H](C)c2cccc(C(F)(F)F)c2)c2cn(CC3COC3)c(=O)cc12 [Compound 5] = 6.52
Cc1nnc(N[C@H](C)c2cccc(C(F)(F)F)c2)c2cn(C3CC3)c(=O)cc12 [Compound 13] = 7.20
Cc1nnc(NC(C)c2cccc(C(F)(F)F)c2)c2nc(O[C@H]3CCOC3)ccc12 (stereo partly drawn) [Compound 15] = 6.17
CC(=O)N1CCCC(c2cc3c(N[C@H](C)c4cccc(C(F)(F)F)c4)nnc(C)c3n(C)c2=O)C1 (stereo partly drawn) [Compound 18] = 7.36

Where do the numbers come from? From patent US20250154147A1.
